# System: PPARg DBDmut:RXRa IVT, anti-PPARg (DBD mutation: PPARg1 K132A/R137A, NR concentration 270 nM, RXRa partner concentration 90 nM)
# ASSAY NAME: PBM binding z-score (relative to random genomic background probes); higher = stronger binding; sequences stand for … in GC…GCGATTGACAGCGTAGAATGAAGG
Kindly state PBM binding z-score for each of the entries shown.
Output spec: single numeric token, no unit.

Entry CAAACCAGGTCACGAAAGGTCAAAGTCGAATGAC , PBM binding z-score reported as 0.599

Entry ATATGTAGGTCATCGGGTCATTCAGTTTGCGCAT , PBM binding z-score reported as 6.46

Entry CGTCCAAGGTCATACGAGGTCAGTGAAGACAGAT , PBM binding z-score reported as 1.25

Entry TTACAAAGGTGAGCTGAGGTCGTTGATCCAACTC , PBM binding z-score reported as 0.303

###

# Test system: RARg homodimer (NR concentration 270 nM)
# ASSAY NAME: PBM binding z-score (relative to random genomic background probes); higher = stronger binding; sequences stand for … in GC…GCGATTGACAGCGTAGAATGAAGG
Rule: Criterion met for PBM binding z-score not less than 3, Criterion not met for anything less.

### Prompt Threshold query (PBM binding z-score >= 3) on AGTCAAAGTTCATCTAGGTATCGTAAGATATGCT
### Response Criterion met

### Prompt Threshold query (PBM binding z-score >= 3) on ATCGAATGGTCGAGGTGAGTATAGAGAAAGGGAA
### Response Criterion not met

### Prompt Threshold query (PBM binding z-score >= 3) on CTTTGTAGGTTAAGGGGGTCATTCAGTTTGAAAG
### Response Criterion met

### Prompt Threshold query (PBM binding z-score >= 3) on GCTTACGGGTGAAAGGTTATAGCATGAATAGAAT
### Response Criterion not met

### Prompt Threshold query (PBM binding z-score >= 3) on ACTAGTTGGTCAGCTGAGGTCACACAAAATTCGG
### Response Criterion met

### Prompt Threshold query (PBM binding z-score >= 3) on CCTACTGGGCCAACAAGGTCATTGATGCCGATAA
### Response Criterion not met

### Prompt Threshold query (PBM binding z-score >= 3) on TAGCCTAGGTTATGCGGGCCAGTATAGTGTCGGC
### Response Criterion not met

### Prompt Threshold query (PBM binding z-score >= 3) on CGTCCAAGGGCAGCAGGTCAGTGAAAGCGACGTG
### Response Criterion not met

### Prompt Threshold query (PBM binding z-score >= 3) on TCGAGTAGGTTACCGGGGCATTCAGGGATGAAGA
### Response Criterion not met

### Prompt Threshold query (PBM binding z-score >= 3) on CAAACTAGGTCACGAAAGGTCAAAGTGGAATGAC
### Response Criterion met

### Prompt Threshold query (PBM binding z-score >= 3) on GCTGCTAGGTCAGGTTGGTCTGCTAACGGGTACG
### Response Criterion met

### Prompt Threshold query (PBM binding z-score >= 3) on CAAACTAGGTCACAGAGGGCAAAGTCCGTGCGTA
### Response Criterion met

###

Kindly state PBM binding z-score for each of the entries shown.
# System: VDR:RXRa (NR concentration 270 nM, RXRa partner concentration 90 nM)
# ASSAY NAME: PBM binding z-score (relative to random genomic background probes); higher = stronger binding; sequences stand for … in GC…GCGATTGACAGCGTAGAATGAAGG
Output spec: single numeric token, no unit.

Entry ACTCGGAGGGCAAAGGTCAGAGCTACGCCAGTGA , PBM binding z-score reported as 4.32

Entry CAAACTAGGTCAAAGGTCAAAGCCGAGCCAACCA , PBM binding z-score reported as 6.79

Entry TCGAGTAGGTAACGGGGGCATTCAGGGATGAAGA , PBM binding z-score reported as 3.38

Entry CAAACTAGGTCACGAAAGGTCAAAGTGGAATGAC , PBM binding z-score reported as 6.71

Entry CCCGCTAGGTCATGGTCAGCTAATCTACAGTATG , PBM binding z-score reported as 1.69

Entry CCTTACGGGTCAGGGTTATAGCACGGGTGGTACG , PBM binding z-score reported as 2.26

Entry CGAACTAGGTCACCAGGAGAGTGAAGAGGTTGGA , PBM binding z-score reported as 1.71
